Tested on: SW620
Assay: cells
Parameters: species or system SW620 MTHFD2-/-, HCT116, PA-TU-8988T; Resazurin cell viability dose-response in 384-well plates, fluorescence at 595 nm, logistic fit
Conditions: Homo sapiens, SW-620, 96 h, C=RPMI+GlutaMAX (5% FBS, 1% P/S); D=Vehicle; 96 h viability, no metabolite rescue (vehicle); read-out: EC50 compound
Assay Metric: pEC50
Kindly note that pEC50 refers to -log10 of the concentration in mol/L and answer with the value alone.

Field request: pEC50 | item: `CN(Cc1cnc2nc(N)nc(N)c2n1)c1ccc(C(=O)N[C@@H](CCC(=O)O)C(=O)O)cc1`
7.91

Would you mind doing `Nc1nc(N)c(CC(=O)Nc2cnc(C(=O)N[C@@H](CCC(=O)O)C(=O)O)c(F)c2)c(=O)[nH]1` as well?
7.60
